# MEASURED ON: Serine/threonine-protein kinase Chk2 (Homo sapiens) (UniProt O96017)
# Sequence (O96017 whole entry): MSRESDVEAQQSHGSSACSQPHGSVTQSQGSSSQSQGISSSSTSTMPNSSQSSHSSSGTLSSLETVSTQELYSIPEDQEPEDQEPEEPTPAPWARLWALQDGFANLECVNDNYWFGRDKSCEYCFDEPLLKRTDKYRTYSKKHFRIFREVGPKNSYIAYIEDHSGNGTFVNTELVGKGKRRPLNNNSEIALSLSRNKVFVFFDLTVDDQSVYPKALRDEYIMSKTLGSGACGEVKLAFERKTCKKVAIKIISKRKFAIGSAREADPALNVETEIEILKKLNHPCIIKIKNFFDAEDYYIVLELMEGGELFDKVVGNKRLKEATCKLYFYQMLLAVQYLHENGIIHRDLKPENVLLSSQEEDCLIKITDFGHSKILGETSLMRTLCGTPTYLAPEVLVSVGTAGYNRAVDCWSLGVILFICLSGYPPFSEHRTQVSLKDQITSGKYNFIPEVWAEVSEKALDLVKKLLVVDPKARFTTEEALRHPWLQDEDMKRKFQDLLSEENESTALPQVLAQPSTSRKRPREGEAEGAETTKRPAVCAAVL
# SETUP CONDITIONS: at 0.1 µM
# Description: GSK_PKIS: CHEK2 mean inhibition at 0.1 uM [Nanosyn]
This section presents compounds with their documented inhibition values.

COMPOUND STRING	RESULT UNITS	inhibition
CN(c1ccc(NC(=O)NCCN2CCOCC2)cc1)c1ccnc(Nc2ccc(CS(C)(=O)=O)cc2)n1	%	2.01
COc1cc(N2CCN(C(C)C)CC2)ccc1Nc1nc(Nc2cccc(F)c2C(=O)O)c2cc[nH]c2n1	%	4.99
CCN1CCC(C(=O)Nc2n[nH]c3nnc(-c4cccc(F)c4F)cc23)CC1	%	-0.57
c1cnn2ncc(-c3ccnc(NCCCN4CCOCC4)n3)c2c1	%	2.74
NC(=O)c1ccc2c(-c3ccnc(NCCCO)n3)c(-c3ccc(F)cc3)nn2c1	%	10.1

###

# MEASURED ON: Ribosomal protein S6 kinase alpha-1 (Homo sapiens) (UniProt Q15418)
# Sequence (Q15418 whole entry): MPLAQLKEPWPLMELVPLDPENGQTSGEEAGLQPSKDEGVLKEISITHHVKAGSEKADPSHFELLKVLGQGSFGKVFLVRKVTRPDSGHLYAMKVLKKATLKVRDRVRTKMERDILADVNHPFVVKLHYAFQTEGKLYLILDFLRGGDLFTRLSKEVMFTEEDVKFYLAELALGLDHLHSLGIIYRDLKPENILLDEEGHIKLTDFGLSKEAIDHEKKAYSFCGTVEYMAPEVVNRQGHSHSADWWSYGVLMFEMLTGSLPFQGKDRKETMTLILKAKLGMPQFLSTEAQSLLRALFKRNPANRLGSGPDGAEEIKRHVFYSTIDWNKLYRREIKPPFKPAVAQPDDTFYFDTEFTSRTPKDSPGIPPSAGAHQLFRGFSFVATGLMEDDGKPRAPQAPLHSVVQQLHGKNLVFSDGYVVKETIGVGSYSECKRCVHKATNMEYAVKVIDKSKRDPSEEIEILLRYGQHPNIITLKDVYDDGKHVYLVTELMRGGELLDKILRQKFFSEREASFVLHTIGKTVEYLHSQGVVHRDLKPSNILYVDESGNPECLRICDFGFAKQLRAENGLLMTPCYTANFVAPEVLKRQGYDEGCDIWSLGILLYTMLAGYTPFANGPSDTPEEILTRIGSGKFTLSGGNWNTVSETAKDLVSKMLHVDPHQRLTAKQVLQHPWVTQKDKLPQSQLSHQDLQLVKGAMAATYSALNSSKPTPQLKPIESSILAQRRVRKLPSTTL
# SETUP CONDITIONS: at 1 µM
Quick reference: inhibition of the listed items.
ENDPOINT: inhibition

MOLECULE	ASSAY VALUE
N#Cc1cccc(Nc2ncc(-c3ccccc3)o2)c1	3.79%
O=C(O[C@H]1CN[C@H](C#Cc2cc3ncnc(Nc4ccc5c(cnn5Cc5ccccc5)c4)c3s2)C1)N1CCOCC1	-0.14%
O=C1Nc2ccccc2/C1=C1\CCc2cc(O)ccc21	28.4%
Cc1c2ccc(N(C)c3ccnc(Nc4cccc(S(N)(=O)=O)c4)n3)cc2nn1C	3.33%
COc1cc(Nc2ncc(-c3ccccc3)o2)cc(OC)c1	1.99%
CC1(C)CC(n2cnc(-c3ccc(F)cc3)c2-c2ccnc(N)n2)CC(C)(C)N1	1.93%
CCN1CCC(C(=O)Nc2n[nH]c3nnc(-c4cccc(F)c4F)cc23)CC1	0.28%
CC1=C(C(=O)Nc2ccc3[nH]ncc3c2)C(c2ccc(F)cc2)N=C(c2ccc(C(F)(F)F)nc2)N1 (stereo unspecified)	4.49%
Cc1cc(O)cc(C)c1/C=C/c1cncc(C(N)=O)c1	-0.09%
COc1cc(N2CCN(C(C)C)CC2)ccc1Nc1nc(Nc2cccc3ncccc23)c2cc[nH]c2n1	3.05%
CS(=O)(=O)Nc1ccc(-c2ccc3c(NC(=O)C4CC4)n[nH]c3c2)cc1	1.36%
NC(=O)c1ccc2c(-c3ccnc(NCCCO)n3)c(-c3ccc(F)cc3)nn2c1	1.7%
COc1ccc2ncn(-c3cc(O[C@H](C)c4ccccc4C(F)(F)F)c(C(N)=O)s3)c2c1	3.85%
NS(=O)(=O)c1cccc(N/C=C2\C(=O)Nc3ccccc32)c1	17.6%
CN1CCC(n2cnc(-c3ccc(F)cc3)c2-c2ccnc(NCCO)n2)CC1	6.04%
CS(=O)(=O)Nc1ccc(-c2cc(-c3ccccc3)cc(C(N)=O)c2N)cc1	0.41%
O=C(O[C@H]1CN[C@H](C#Cc2cc3ncnc(Nc4ccc(OCc5cccc(F)c5)c(Cl)c4)c3s2)C1)N1CCOCC1	6.91%
COc1ccc(Nc2ncc(-c3ccccc3)o2)cc1OC	2.18%
CCS(=O)(=O)c1ccc(OC)c(Nc2ncc(-c3cccc(C(C)=O)c3)o2)c1	5.75%
CS(=O)(=O)CCNCc1ccoc1-c1ccc2ncnc(Nc3ccc(OCc4ccccc4)cc3)c2c1	-0.1%
COc1cccc(Nc2nccc(-c3cnn4ncccc34)n2)c1	4.33%
CC(C)c1ccc(-c2cc(-c3c[nH]nc3-c3ccccn3)ccn2)cc1	1.19%
CS(=O)(=O)CCNCc1ccc(-c2ccc3ncnc(Nc4ccc(OCc5ccccc5)cc4)c3c2)o1	3.81%
COC(=O)Nc1nc2cc(Oc3ccc(NC(=O)Nc4ccccc4)cc3)ccc2[nH]1	4.06%
CCS(=O)(=O)c1ccc(OC)c(Nc2ncc(-c3cccc(F)c3)o2)c1	6.08%
COc1ccc(-c2nn3ncccc3c2-c2ccnc(Nc3ccc(F)c(F)c3)n2)cc1	7.89%
OCCCNc1nccc(-c2c(-c3ccc(F)cc3)nn3cc(C(F)(F)F)ccc23)n1	2.41%
CN(C)CCNC(=O)Nc1ccc(N(C)c2ccnc(Nc3ccc(CS(C)(=O)=O)cc3)n2)cc1	2.41%
CNC(=O)c1ncccc1Nc1nc(Nc2cc3c(cc2OC)CCCN3C(=O)CN(C)C)nc2[nH]ccc12	25.8%
c1cnn2ncc(-c3ccnc(NCCCN4CCOCC4)n3)c2c1	4.45%
COC(=O)Nc1nc2ccc(Oc3ccc(NC(=O)Nc4cc(C(F)(F)F)ccc4F)cc3)cc2s1	2.46%
CN(c1ccc(NC(=O)NCCN2CCOCC2)cc1)c1ccnc(Nc2ccc(CS(C)(=O)=O)cc2)n1	3.56%
COc1c(C(N)=O)cc(-c2ccc(Cl)cc2)cc1-c1ccc(S(N)(=O)=O)cc1	2.12%
CCOc1ccc2c(-c3ccnc(Nc4cc(OC)cc(C(F)(F)F)c4)n3)cnn2n1	-1.47%
CNC(=O)c1sc(-n2cnc3cc(OC)c(OC)cc32)cc1OCc1ccccc1C(F)(F)F	2.58%
CS(=O)(=O)CCNCc1ccc(-c2ccc3ncnc(Nc4ccc(OCc5cccc(C(F)(F)F)c5)cc4)c3c2)o1	2.45%
